# assay-setup: in n-propanol, 288.17 K
metric-name: solubility (mole fraction)
Respond using a number only.

Requested read-out: solubility (mole fraction). Entry: O=C(O)c1cccc(C(=O)O)c1
0.00249

* * *

# assay-setup: in n-butanol, 317.94 K
metric-name: solubility (mole fraction)
Respond numerically, and do not add a unit to the figure.

So what's the measured solubility (mole fraction) for this one? O=C(O)c1cccc(C(=O)O)c1
0.0052

* * *

# assay-setup: in isopropanol, 303.05 K
metric-name: solubility (mole fraction)

May I ask what solubility (mole fraction) has been recorded for O=C(O)c1cccc(C(=O)O)c1 ?
0.00459

* * *

# assay-setup: in n-propanol, 313.15 K
metric-name: solubility (mole fraction)

May I ask what solubility (mole fraction) has been recorded for O=C(O)c1cccc(C(=O)O)c1 ?
0.00473

Just for reference, BigSolDB 2.1 is where these values come from.
